experiment: amyloid nucleation score (Sup35N fusion, yeast selection) (log enrichment); library NNK1; higher = more nucleation; inactive = no reads after selection;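 further: zero at mode of non-aggregating sequences after 7 days selection at 30°C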
Assign met whenever amyloid nucleation score does not fall below 0.3; assign not met whenever it does.

Here's what some known entries look like.
SUBSTANCE	CLASS_LABEL
STNFLWTTFGFFHVCLDGAM	not met
EFQMLEFYRANLPSKSQNTL	not met
CLCMSC	not met
NNKGSLSPGNLDTSDESEFS	met
KHYIKRASDGHAFSYVHLSL	not met
VMSSKDKLIWYTFL	met
HKFSNELLL	not met
LIDLCGLCFEAR	not met
RSCELGFDPVKKFFRIRIWG	not met
VRFGWVSSTPVVGVSQLCAH	not met

Decide: is the reported value of amyloid nucleation score for `VLILVDGSKMAPTALSCYSH` equal to or greater than 0.3?
met

Decide: is the reported value of amyloid nucleation score for `FYRCRRSRNGGISDVFRIIP` equal to or greater than 0.3?
not met

Decide: is the reported value of amyloid nucleation score for `SKSFGFEYPG` equal to or greater than 0.3?
not met

Decide: is the reported value of amyloid nucleation score for `TCIISTDGCMQAGHFVGDRR` equal to or greater than 0.3?
not met

Decide: is the reported value of amyloid nucleation score for `SGNCQSRFVVNGNHKC` equal to or greater than 0.3?
met

Decide: is the reported value of amyloid nucleation score for `CSTRGFGGD` equal to or greater than 0.3?
not met

Decide: is the reported value of amyloid nucleation score for `TKIHLPYCYANLVNHSVQHK` equal to or greater than 0.3?
met

Decide: is the reported value of amyloid nucleation score for `GTCPSRPVSV` equal to or greater than 0.3?
not met

Decide: is the reported value of amyloid nucleation score for `AAAFSSGGKLFHAGCWRRMM` equal to or greater than 0.3?
not met

Decide: is the reported value of amyloid nucleation score for `ATCCNSWIAF` equal to or greater than 0.3?
met

Decide: is the reported value of amyloid nucleation score for `SPEGSPNEHDYTIPAVRGGP` equal to or greater than 0.3?
met

Decide: is the reported value of amyloid nucleation score for `RRFPRMWGLCMSLFRSHCGS` equal to or greater than 0.3?
met

Decide: is the reported value of amyloid nucleation score for `RGSEPAIGLMMVLP` equal to or greater than 0.3?
met

Decide: is the reported value of amyloid nucleation score for `RWPRCYYNLGKCTDISLTWS` equal to or greater than 0.3?
met

Decide: is the reported value of amyloid nucleation score for `IFITCIARTLYHAGNLQRNL` equal to or greater than 0.3?
met

Decide: is the reported value of amyloid nucleation score for `YIDVFVSRVLHSGFERSDVV` equal to or greater than 0.3?
met

Decide: is the reported value of amyloid nucleation score for `SILISMYGGSSKKCQRFEEG` equal to or greater than 0.3?
met

Decide: is the reported value of amyloid nucleation score for `FMLWCQFKRDNIKRTDRLAV` equal to or greater than 0.3?
met

Decide: is the reported value of amyloid nucleation score for `RRDSYFCVWYFWGPDEGCPF` equal to or greater than 0.3?
met

---

assay: amyloid nucleation score (Sup35N fusion, yeast selection) (log enrichment); library NNK3; higher = more nucleation; inactive = no reads after selection
TEST_READOUT: amyloid nucleation score

Answered examples (6):
MONOMER_SEQUENCE	OBSERVED_VALUE
LSGELCSW	inactive
SMLQAMEYYNIGIVYNHKIW	inactive
EFIALSVFLLNFVSCLWSNV	inactive
CLFGLGVEAKVFIYQGDDQS	inactive
SLSLRWFVGCKGSDGSALQC	inactive
SSVWIFRWTICNWESKF	2.45

Consider the sequence `LDKVSNSCTPIWPFVIET` and give its measured amyloid nucleation score.
inactive

Consider the sequence `IIWLWGNNGKYTMGFLGIGG` and give its measured amyloid nucleation score.
inactive

Consider the sequence `WAFGYFGCYFQFLVLQDSVG` and give its measured amyloid nucleation score.
1.87

---

assay: amyloid nucleation score (Sup35N fusion, yeast selection) (log enrichment); library NNK3; higher = more nucleation; inactive = no reads after selection
TEST_READOUT: amyloid nucleation score

MONOMER_SEQUENCE	amyloid nucleation score
NWSLSKSRHIPLGTCRGISY	-0.201
KITIKFYRCTS	inactive
ISYTTSNYITLVYKLTNRAY	0.911
TTSNMGVVHYL	inactive
HITGNGPHLRYCARQVLWSL	inactive
GFKDLWYCDGF	inactive
MYAVSGVNAQGWWLLADYEL	inactive
FTGAMAFFLWFIQDYWFTGW	inactive

Consider the sequence `RLYLKTDVSDTRHRYMWLSE` and give its measured amyloid nucleation score.
inactive

---

assay: amyloid nucleation score (Sup35N fusion, yeast selection) (log enrichment); library NNK1; higher = more nucleation; inactive = no reads after selection
Assign true whenever amyloid nucleation score does not fall below 0.3; assign false whenever it does.

SUBSTANCE	CLASS_LABEL
SPWSSNRYVLNSFYLSHPRR	false
WNNGVLLNRV	true
NCECVFIPMKEPGFYR	false
VMWGQPCQIFSGYAYLRHKV	false
QVGPVREHEHKVLAGLSMDW	true
LVILVTIVDFMEDLSW	true

Decide: is the reported value of amyloid nucleation score for `LLGVSAF` equal to or greater than 0.3?
false

Decide: is the reported value of amyloid nucleation score for `LVFVVMYGSRPSLKWWGITC` equal to or greater than 0.3?
true

Decide: is the reported value of amyloid nucleation score for `FAMTNFRYDLPQTHPLPRAV` equal to or greater than 0.3?
false

Decide: is the reported value of amyloid nucleation score for `NYRRQLSFLRLSGQDMLEGK` equal to or greater than 0.3?
false

Decide: is the reported value of amyloid nucleation score for `VVCRCTYFRLITGDSSL` equal to or greater than 0.3?
false

Decide: is the reported value of amyloid nucleation score for `TICSSTFNFCSCFVTYLRMG` equal to or greater than 0.3?
true

Decide: is the reported value of amyloid nucleation score for `ICLIAWGQ` equal to or greater than 0.3?
true

Decide: is the reported value of amyloid nucleation score for `VNRFCSVQVDS` equal to or greater than 0.3?
false

Decide: is the reported value of amyloid nucleation score for `PALNILNHYLLCKDPLFVRV` equal to or greater than 0.3?
true

Decide: is the reported value of amyloid nucleation score for `VVCGIPVFNLRYL` equal to or greater than 0.3?
false

Decide: is the reported value of amyloid nucleation score for `YPLFCNDHVGSSTLRRR` equal to or greater than 0.3?
false

Decide: is the reported value of amyloid nucleation score for `NYSYSFIPRSKVNGYEYGGA` equal to or greater than 0.3?
false

---

assay: amyloid nucleation score (Sup35N fusion, yeast selection) (log enrichment); library NNK3; higher = more nucleation; inactive = no reads after selection
TEST_READOUT: amyloid nucleation score

Answered examples (4):
MONOMER_SEQUENCE	amyloid nucleation score
WKVMLRLALRMQCTHLAVCW	inactive
RDCSSAIYKCTWCMSF	inactive
GMSCWGSMQWNVL	0.766
ITGFLFRVVW	0.829

Consider the sequence `FLVICCCWD` and give its measured amyloid nucleation score.
2.08

Consider the sequence `PVVLLSWELMILLWVNSFAL` and give its measured amyloid nucleation score.
inactive

---

assay: amyloid nucleation score (Sup35N fusion, yeast selection) (log enrichment); library NNK3; higher = more nucleation; inactive = no reads after selection
TEST_READOUT: amyloid nucleation score

Answered examples (5):
MONOMER_SEQUENCE	amyloid nucleation score
ELAHKIMAM	inactive
TYKHTSWETLDDVFSDGSSS	inactive
FPCSGPACYIYYTLHGLSLG	inactive
LRGFKEVTTRLKVRLQLGM	-0.731
GILYGPCSFWDFVRLEMSRF	-0.504

Consider the sequence `LFLRPNANRYVH` and give its measured amyloid nucleation score.
inactive

Consider the sequence `LKTNCTPNMLFGFLSEMMRC` and give its measured amyloid nucleation score.
inactive

Consider the sequence `YIAVMILLCHVKHEMSLLII` and give its measured amyloid nucleation score.
2.71

Consider the sequence `MACRSNGLVGPEHTYVPT` and give its measured amyloid nucleation score.
inactive

---

assay: amyloid nucleation score (Sup35N fusion, yeast selection) (log enrichment); library NNK3; higher = more nucleation; inactive = no reads after selection
TEST_READOUT: amyloid nucleation score

Answered examples (5):
SUBSTANCE	OBSERVED_VALUE
YYLVSHWWFGQCFDHVVS	inactive
DLRCHGYC	inactive
SVEGQHYKLAVTFVDLYNSI	inactive
VLGWGSIVMNDEGELSVGMV	inactive
SFYFWSDAYACIKARRM	inactive

Consider the substance `ITWTRGDVGQTHNSAMLSHT` and give its measured amyloid nucleation score.
inactive

Consider the substance `TQRTGY` and give its measured amyloid nucleation score.
inactive

Consider the substance `SFSEPAHWPSCSRFVRDCVS` and give its measured amyloid nucleation score.
inactive

Consider the substance `MSIVAGENLIGKV` and give its measured amyloid nucleation score.
inactive

Consider the substance `LAMPTLLQASVTNLVGDSIV` and give its measured amyloid nucleation score.
-0.265

Consider the substance `NLFVNL` and give its measured amyloid nucleation score.
1.13

Consider the substance `LCCTRTSHIMSRVARMAFRV` and give its measured amyloid nucleation score.
inactive

Consider the substance `AQNSDHMSKATVH` and give its measured amyloid nucleation score.
inactive

Consider the substance `CFKFWWGIRENFKFLGDVMR` and give its measured amyloid nucleation score.
inactive

Consider the substance `DQIYSECLV` and give its measured amyloid nucleation score.
inactive

Consider the substance `VNCWLLAVFTASSATLHNTR` and give its measured amyloid nucleation score.
0.776

Consider the substance `CADQWS` and give its measured amyloid nucleation score.
inactive

Consider the substance `GTIRVYIKTNDATVIGEHHA` and give its measured amyloid nucleation score.
1.21
